test: chemical genetic growth profiling, strain panel (AID 1159580);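 further: tested at 20 µM; growth read once vehicle control cultures reached saturation at 30 °C; 1 = growth at the plate median or of vehicle wells; lower values mean less growth of the strain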; conditions: S. cerevisiae deletion strains, growth OD, locus YDR363W, strain ESC2, hits give low values
Among all 5,500 compounds or so, about 2,000 (36%) were called active. Another 18% or so got no clear call; they are omitted. Some of the results follow.
normalized growth for assorted molecules
reported_endpoint: normalized growth

>>> meas_value("CCCC(=O)NCCc1c2n(c3ccc(OC)cc13)CCCc1ccccc1-2")
0.998
>>> meas_value("COC(=O)c1c(C)[nH]c(C)c1C(=O)c1ccccc1Cc1ccccc1")
1.02
>>> meas_value("c1ccc2cc(CC3=NCCN3)ccc2c1")
1.02
>>> meas_value("CCC1(c2ccccc2)C(=O)NCNC1=O")
0.969
>>> meas_value("NC/C=C/C(=O)O")
0.999
>>> meas_value("CN(C)CC[C@@H](c1ccc(Cl)cc1)c1ccccn1")
1
>>> meas_value("CN(C)CCCCSC(=N)N")
1.02
>>> meas_value("CNC1(C)C2CCC(C2)C1(C)C (stereo unspecified)")
0.993
>>> meas_value("N[C@@H](CS(=O)O)C(=O)O")
1.01
>>> meas_value("CCCCCCCCCCCCCCSCC(=O)O")
0.993
>>> meas_value("N=c1nc(N2CCCCC2)cc(N)n1O")
0.979
>>> meas_value("CC(C)[N+](C)(CCOC(=O)C1c2ccccc2Oc2ccccc21)C(C)C")
1.05
>>> meas_value("CC(N)Cc1c[nH]c2ccc(O)cc12 (stereo unspecified)")
1.03
>>> meas_value("CCCc1c(OCCCOc2ccc(OCC(=O)O)cc2)ccc(C(C)=O)c1O")
1.01
>>> meas_value("N#CC(Cc1ccc(O)c(O)c1)C(=O)N1CCc2ccccc21 (stereo unspecified)")
0.97
>>> meas_value("C[N+](C)(C)CC(=O)O")
1.02
>>> meas_value("NC(=O)COc1c(F)cc(SCCNS(=O)(=O)c2ccccc2)cc1F")
0.968
>>> meas_value("NCC1(CC(=O)O)CCCCC1")
0.995
>>> meas_value("NC(N)=Nc1nc(CSCCC(N)=NS(N)(=O)=O)cs1")
0.999
>>> meas_value("CCCCCCCCCCCCCCCCCCOC[C@H](COP(=O)([O-])OCC[N+](C)(C)C)OC")
0.992
>>> meas_value("CC(=O)OC1C(=O)C2(C)C(O)CC3OCC3(OC(C)=O)C2C(OC(=O)c2ccccc2)C2(O)CC(OC(=O)C(O)C(NC(=O)c3ccccc3)c3ccccc3)C(C)=C1C2(C)C (stereo unspecified)")
0.984
>>> meas_value("O=C(O)[C@H]1NCCC[C@H]1C(=O)O")
0.991
>>> meas_value("CCN(CC)C(=S)SSC(=S)N(CC)CC")
0.997
>>> meas_value("CC[N+](C)(C)Cc1ccccc1Br")
0.991
>>> meas_value("O=C(O)[C@@H]1C[C@H](C(=O)O)N1")
1.06
>>> meas_value("COc1ccccc1N1CCN(CCCCNC(=O)c2ccc3ccccc3c2)CC1")
1.03
>>> meas_value("Oc1ccc(Cn2cc[nH]c2=S)cc1")
1
>>> meas_value("C[C@H]1OC[C@@H](C[N+](C)(C)C)O1")
1.02
>>> meas_value("O=C(OCCN1CCCCC1)c1c[nH]c2ccccc12")
0.997
>>> meas_value("O=Nc1ccc2oc(=O)ccc2c1")
0.917
>>> meas_value("CCCN1CCC[C@@H]2Cc3nc(N)ncc3C[C@H]21")
0.999

----------
assay: chemical genetic growth profiling, strain panel (AID 1159580);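 further: tested at 20 µM; growth read once vehicle control cultures reached saturation at 30 °C; 1 = growth at the plate median or of vehicle wells; lower values mean less growth of the strain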; settings: S. cerevisiae deletion strains, growth OD, locus YDR335W, strain msn5, hits give low values
Screen size: about 5,500 compounds; about 2,000 (36%) were called active. Inconclusive results (about 18%) are left out. The list shows a part of the results.
reported_endpoint: normalized growth

>>> meas_value("COc1ccc(C2CC(=O)c3ccc(OC)cc3O2)cc1 (configuration not stated)")
"0.953 (inactive)"
>>> meas_value("NC/C=C/C(=O)O")
"1.01 (inactive)"
>>> meas_value("CCCCCC(=O)O[C@]1(C(C)=O)CCC2C3CCC4=CC(=O)CC[C@]4(C)C3CC[C@@]21C (some centres not stated)")
"1.01 (inactive)"
>>> meas_value("CC(=O)[C@H]1CCC2C3C[C@H](C)C4=CC(=O)CC[C@]4(C)C3[C@@H](O)C[C@@]21C (some centres not stated)")
"0.984 (inactive)"
>>> meas_value("COc1ccc(-c2coc3c(OC)c(OC)cc(O)c3c2=O)cc1")
"1 (inactive)"
>>> meas_value("CCCCOc1ccc(CC(=O)NO)cc1")
"1.01 (inactive)"
>>> meas_value("COc1ccc(C(=O)c2ccccc2)c(O)c1")
"0.758 (active)"
>>> meas_value("NCC1CCCCC1CC(=O)O (configuration not stated)")
"1.03 (inactive)"
>>> meas_value("COC1C(O)C(O)C(O)[C@@H](O)C1O (some centres not stated)")
"0.972 (inactive)"
>>> meas_value("C[C@@H]1O[C@@H](O[C@H]2[C@@H](Oc3cc(O)c4c(c3)O[C@H](c3ccc(O)cc3)CC4=O)O[C@H](CO)[C@@H](O)[C@@H]2O)[C@H](O)[C@H](O)[C@H]1O")
"0.969 (inactive)"
>>> meas_value("C[CH2][Hg][S]c1ccccc1C(=O)O")
"0.0577 (active)"
>>> meas_value("O=C(Cc1ccccc1)NO")
"0.982 (inactive)"
>>> meas_value("COc1cc2c(cc1OC)C(=O)C(CC1CCN(Cc3ccccc3)CC1)C2 (configuration not stated)")
"0.999 (inactive)"
>>> meas_value("CC(=O)O[C@]1(C(C)=O)CCC2C3C=C(C)C4=CC(=O)CCC4(C)C3CCC21C (some centres not stated)")
"0.957 (inactive)"
>>> meas_value("CC(=O)CC(=O)CCC(=O)O")
"1.02 (inactive)"
>>> meas_value("COc1ccc(C(=O)c2ccccc2O)c(O)c1")
"0.889 (active)"
>>> meas_value("NC(N)=NOCC[C@H](N)C(=O)O")
"1.01 (inactive)"
>>> meas_value("O=C(O)COc1cc(Cl)c(Cl)cc1Cl")
"0.994 (inactive)"
>>> meas_value("O=C(O)c1ccccc1OP(=O)(O)O")
"1.01 (inactive)"
>>> meas_value("CN1CCCC(n2nc(Cc3ccc(Cl)cc3)c3ccccc3c2=O)CC1 (configuration not stated)")
"1.01 (inactive)"
>>> meas_value("COc1ccc2c(c1)OC[C@@H](Cc1ccc(OC)c(OC)c1)[C@@H]2O")
"1.01 (inactive)"
>>> meas_value("COc1ccc([C@@H]2CC(=O)c3c(O)cc(O)cc3O2)cc1O")
"0.975 (inactive)"

----------
normalized growth for assorted compounds
assay: chemical genetic growth profiling, strain panel (AID 1159580);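 further: tested at 20 µM; growth read once vehicle control cultures reached saturation at 30 °C; 1 = growth at the plate median or of vehicle wells; lower values mean less growth of the strain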; conditions: S. cerevisiae deletion strains, growth OD, locus YAL030W, strain snc1, hits give low values
Among all 5,500 compounds or so, about 2,000 (36%) were called active. Another 18% or so got no clear call; they are omitted. This is one part of the list.
reported_endpoint: normalized growth

>>> meas_value("CN=C(NC#N)NCCSCc1nc[nH]c1C")
"0.998 (inactive)"
>>> meas_value("O=C(O)C1CC([C@@H]2CCCCN2)CN2CCCCC12 (some centres undefined)")
"0.972 (inactive)"
>>> meas_value("COc1ccc2c(c1)OC[C@@H](Cc1ccc(OC)c(OC)c1)[C@H]2O")
"1.01 (inactive)"
>>> meas_value("O=C(O)COc1cc(Cl)c(Cl)cc1Cl")
"1.01 (inactive)"
>>> meas_value("COc1cccc([C@]2(O)CCCC[C@H]2CN(C)C)c1")
"0.947 (inactive)"
>>> meas_value("CC(=O)O[C@H]1C(=O)[C@@]2(C)C([C@H](OC(=O)c3ccccc3)[C@]3(O)C[C@H](OC(=O)[C@H](O)[C@@H](NC(=O)c4ccccc4)c4ccccc4)C(C)=C1C3(C)C)[C@]1(OC(C)=O)CO[C@@H]1C[C@@H]2O (some centres undefined)")
"1 (inactive)"
>>> meas_value("COc1ccc([C@@H]2CC(=O)c3c(O)cc(O)cc3O2)cc1O")
"0.982 (inactive)"
>>> meas_value("Cn1cc[nH]c1=S")
"0.99 (inactive)"
>>> meas_value("O=C1CC(c2ccc(O)c(O)c2)Oc2cc(O)cc(O)c21 (centres undefined)")
"0.994 (inactive)"
>>> meas_value("CC(=O)OC1CC23CC24CCC(OC2OCC(O)C(O)C2O)C(C)(C)C4CCC3C2(C)CC3OC4(CC(C)C3C12C)OC(O)C1(C)OC41 (centres undefined)")
"1 (inactive)"
>>> meas_value("O=C(/C=C/c1ccccc1)O[C@H]1C[C@@H](O)[C@]2(O)C=CO[C@@H](O[C@@H]3O[C@H](CO)[C@@H](O)[C@H](O)[C@H]3O)[C@H]12")
"1.03 (inactive)"
>>> meas_value("OCc1ccccc1O[C@@H]1O[C@H](CO)[C@@H](O)[C@H](O)[C@H]1O")
"0.964 (inactive)"
>>> meas_value("COC(=O)C1=COC(OC2OC(CO)C(O)C(O)C2O)C2C(C)CC(=O)C12O (centres undefined)")
"0.975 (inactive)"
>>> meas_value("NCC1CCCCC1CC(=O)O (centres undefined)")
"1.03 (inactive)"
